Value source: the NIST ThermoML archive (doi:10.1021/je1006357)

Assay: refractive index (Na D-line) (dimensionless)
Conditions: 333.15 K; 101.33 kPa; Liquid; Standard Abbe refractometry
Measured refractive index accompanies every entry in the list below.
Field format: numeric only.

Recorded refractive index, per entry:
* CCCC[N+]1(C)CCCC1.COS(=O)(=O)[O-] [1-butyl-1-methylpyrrolidinium methyl sulfate] | 1.46406
* CCCC[N+]1(CC)CCCC1.CCOS(=O)(=O)[O-] [1-butyl-1-ethylpyrrolidinium ethyl sulfate] | 1.46581
* CC[N+](C)(CC)CC.COS(=O)(=O)[O-] [N,N-diethyl-N-methylethanaminium methyl sulfate] | 1.45561

Sample CCOS(=O)(=O)[O-].CC[N+]1(C)CCCC1 [1-ethyl-1-methylpyrrolidinium ethyl sulfate] — what was its refractive index?
1.46378

###

Test: refractive index (Na D-line) (dimensionless)
Conditions: 343.15 K; 101.33 kPa; Liquid; Standard Abbe refractometry
Numbers after ± are expanded uncertainties.
Measured refractive index accompanies every entry in the list below.

Sample CCCC[N+]1(C)CCCC1.COS(=O)(=O)[O-] [1-butyl-1-methylpyrrolidinium methyl sulfate] — what was its refractive index?
1.46143 ± 0.0011

Sample CC[N+](C)(CC)CC.COS(=O)(=O)[O-] [N,N-diethyl-N-methylethanaminium methyl sulfate] — what was its refractive index?
1.45283 ± 0.0011

Sample CCOS(=O)(=O)[O-].CC[N+]1(C)CCCC1 [1-ethyl-1-methylpyrrolidinium ethyl sulfate] — what was its refractive index?
1.46116 ± 0.0011

Sample CCCC[N+]1(CC)CCCC1.CCOS(=O)(=O)[O-] [1-butyl-1-ethylpyrrolidinium ethyl sulfate] — what was its refractive index?
1.46315 ± 0.0011

###

Measured refractive index accompanies every entry in the list below.
Experiment: refractive index (Na D-line) (dimensionless)
Conditions: 328.15 K; 101.33 kPa; Liquid; Standard Abbe refractometry
Field format: numeric only.

Recorded refractive index, per entry:
- CC[N+](C)(CC)CC.COS(=O)(=O)[O-] [N,N-diethyl-N-methylethanaminium methyl sulfate]: 1.45687
- CCOS(=O)(=O)[O-].CC[N+]1(C)CCCC1 [1-ethyl-1-methylpyrrolidinium ethyl sulfate]: 1.46506

Sample CCCC[N+]1(CC)CCCC1.CCOS(=O)(=O)[O-] [1-butyl-1-ethylpyrrolidinium ethyl sulfate] — what was its refractive index?
1.4671

Sample CCCC[N+]1(C)CCCC1.COS(=O)(=O)[O-] [1-butyl-1-methylpyrrolidinium methyl sulfate] — what was its refractive index?
1.46536

###

Assay: refractive index (Na D-line) (dimensionless)
Conditions: 338.15 K; 101.33 kPa; Liquid; Standard Abbe refractometry
measurement.label: refractive index
Field format: numeric only.

Recorded refractive index, per entry:
* CCCC[N+]1(C)CCCC1.COS(=O)(=O)[O-] [1-butyl-1-methylpyrrolidinium methyl sulfate] | 1.46274
* CC[N+](C)(CC)CC.COS(=O)(=O)[O-] [N,N-diethyl-N-methylethanaminium methyl sulfate] | 1.45402
* CCCC[N+]1(CC)CCCC1.CCOS(=O)(=O)[O-] [1-butyl-1-ethylpyrrolidinium ethyl sulfate] | 1.46454

Sample CCOS(=O)(=O)[O-].CC[N+]1(C)CCCC1 [1-ethyl-1-methylpyrrolidinium ethyl sulfate] — what was its refractive index?
1.46246

###

Conditions: 333.15 K; 101.33 kPa; Liquid; Vibrating tube method
± gives the expanded uncertainty stated by the source.
measurement.label: mass density
Please format your answer as a value with the unit trailing.

Recorded mass density, per entry:
• CCCC[N+]1(C)CCCC1.COS(=O)(=O)[O-] [1-butyl-1-methylpyrrolidinium methyl sulfate] = 1145.42 ± 7.1 kg/m3
• CC[N+](C)(CC)CC.COS(=O)(=O)[O-] [N,N-diethyl-N-methylethanaminium methyl sulfate] = 1151.33 ± 7.2 kg/m3
• CCCC[N+]1(CC)CCCC1.CCOS(=O)(=O)[O-] [1-butyl-1-ethylpyrrolidinium ethyl sulfate] = 1115.98 ± 6.8 kg/m3

The record that follows has no mass density shown yet.
Sample CCOS(=O)(=O)[O-].CC[N+]1(C)CCCC1 [1-ethyl-1-methylpyrrolidinium ethyl sulfate] — what was its mass density?
1174.15 ± 7.5 kg/m3

###

Conditions: 338.15 K; 101.33 kPa; Liquid; Vibrating tube method
± gives the expanded uncertainty stated by the source.
Measured mass density accompanies every entry in the list below.
Please format your answer as a value with the unit trailing.

Recorded mass density, per entry:
- CCCC[N+]1(CC)CCCC1.CCOS(=O)(=O)[O-] [1-butyl-1-ethylpyrrolidinium ethyl sulfate]: 1113.02 ± 6.7 kg/m3
- CCOS(=O)(=O)[O-].CC[N+]1(C)CCCC1 [1-ethyl-1-methylpyrrolidinium ethyl sulfate]: 1171.11 ± 7.5 kg/m3
- CCCC[N+]1(C)CCCC1.COS(=O)(=O)[O-] [1-butyl-1-methylpyrrolidinium methyl sulfate]: 1142.44 ± 7.1 kg/m3

The record that follows has no mass density shown yet.
Sample CC[N+](C)(CC)CC.COS(=O)(=O)[O-] [N,N-diethyl-N-methylethanaminium methyl sulfate] — what was its mass density?
1148.34 ± 7.2 kg/m3

###

Details: 333.15 K; 101.33 kPa; Liquid; Pulse-echo method
measurement.label: speed of sound (m/s)
Express the result in m/s but write the number alone.

Recorded speed of sound, per entry:
• CCOS(=O)(=O)[O-].CC[N+]1(C)CCCC1 [1-ethyl-1-methylpyrrolidinium ethyl sulfate] = 1689.2
• CC[N+](C)(CC)CC.COS(=O)(=O)[O-] [N,N-diethyl-N-methylethanaminium methyl sulfate] = 1787.1
• CCCC[N+]1(CC)CCCC1.CCOS(=O)(=O)[O-] [1-butyl-1-ethylpyrrolidinium ethyl sulfate] = 1589.6

The record that follows has no speed of sound shown yet.
Sample CCCC[N+]1(C)CCCC1.COS(=O)(=O)[O-] [1-butyl-1-methylpyrrolidinium methyl sulfate] — what was its speed of sound?
1649.8

###

Settings: 328.15 K; 101.33 kPa; Liquid; Capillary tube (Ostwald / Ubbelohde) method
measurement.label: viscosity (mPa·s)
Express the result in mPa·s but write the number alone.

Sample CCCC[N+]1(CC)CCCC1.CCOS(=O)(=O)[O-] [1-butyl-1-ethylpyrrolidinium ethyl sulfate] — what was its viscosity?
105.5

###

Conditions: 328.15 K; 101.33 kPa; Liquid; Vibrating tube method
± gives the expanded uncertainty stated by the source.
measurement.label: mass density
Please format your answer as a value with the unit trailing.

Recorded mass density, per entry:
• CC[N+](C)(CC)CC.COS(=O)(=O)[O-] [N,N-diethyl-N-methylethanaminium methyl sulfate] = 1154.32 ± 7.2 kg/m3
• CCOS(=O)(=O)[O-].CC[N+]1(C)CCCC1 [1-ethyl-1-methylpyrrolidinium ethyl sulfate] = 1177.22 ± 7.5 kg/m3

Sample CCCC[N+]1(C)CCCC1.COS(=O)(=O)[O-] [1-butyl-1-methylpyrrolidinium methyl sulfate] — what was its mass density?
1148.42 ± 7.2 kg/m3

Sample CCCC[N+]1(CC)CCCC1.CCOS(=O)(=O)[O-] [1-butyl-1-ethylpyrrolidinium ethyl sulfate] — what was its mass density?
1118.72 ± 6.8 kg/m3

###

Measured speed of sound accompanies every entry in the list below.
Conditions: 338.15 K; 101.33 kPa; Liquid; Pulse-echo method
Express the result in m/s but write the number alone.

Recorded speed of sound, per entry:
• CCCC[N+]1(CC)CCCC1.CCOS(=O)(=O)[O-] [1-butyl-1-ethylpyrrolidinium ethyl sulfate] = 1577.2
• CCOS(=O)(=O)[O-].CC[N+]1(C)CCCC1 [1-ethyl-1-methylpyrrolidinium ethyl sulfate] = 1677.3
• CCCC[N+]1(C)CCCC1.COS(=O)(=O)[O-] [1-butyl-1-methylpyrrolidinium methyl sulfate] = 1637.6

The record that follows has no speed of sound shown yet.
Sample CC[N+](C)(CC)CC.COS(=O)(=O)[O-] [N,N-diethyl-N-methylethanaminium methyl sulfate] — what was its speed of sound?
1774.2

###

Details: 333.15 K; 101.33 kPa; Liquid; Capillary tube (Ostwald / Ubbelohde) method
measurement.label: viscosity (mPa·s)
Express the result in mPa·s but write the number alone.

Recorded viscosity, per entry:
• CC[N+](C)(CC)CC.COS(=O)(=O)[O-] [N,N-diethyl-N-methylethanaminium methyl sulfate] = 64
• CCCC[N+]1(CC)CCCC1.CCOS(=O)(=O)[O-] [1-butyl-1-ethylpyrrolidinium ethyl sulfate] = 82.9
• CCOS(=O)(=O)[O-].CC[N+]1(C)CCCC1 [1-ethyl-1-methylpyrrolidinium ethyl sulfate] = 59.1

The record that follows has no viscosity shown yet.
Sample CCCC[N+]1(C)CCCC1.COS(=O)(=O)[O-] [1-butyl-1-methylpyrrolidinium methyl sulfate] — what was its viscosity?
69.2

###

Settings: 338.15 K; 101.33 kPa; Liquid; Capillary tube (Ostwald / Ubbelohde) method
measurement.label: viscosity (mPa·s)
Express the result in mPa·s but write the number alone.

Recorded viscosity, per entry:
- CC[N+](C)(CC)CC.COS(=O)(=O)[O-] [N,N-diethyl-N-methylethanaminium methyl sulfate]: 53.42
- CCOS(=O)(=O)[O-].CC[N+]1(C)CCCC1 [1-ethyl-1-methylpyrrolidinium ethyl sulfate]: 49.5

Sample CCCC[N+]1(CC)CCCC1.CCOS(=O)(=O)[O-] [1-butyl-1-ethylpyrrolidinium ethyl sulfate] — what was its viscosity?
66.8

Sample CCCC[N+]1(C)CCCC1.COS(=O)(=O)[O-] [1-butyl-1-methylpyrrolidinium methyl sulfate] — what was its viscosity?
56.4
